Listed here are compounds together with their documented TGI.
- Tested on: TK-10 renal
- Measurement Description: NCI tumour cell line growth inhibition, 48 h

Study these solved cases before continuing.
{"Compound": "COC1(C)OC[C@@]2(C)OC(C)C1(C)C2O[Si](C(C)C)(C(C)C)C(C)C (stereo not given in full)", "TGI": "80.2 µM"}
{"Compound": "CCOC(=O)C(NC(=O)c1ccccc1)(Nc1cc(C)on1)C(F)(F)F (stereo not given)", "TGI": "> 100 µM"}
{"Compound": "Cn1cc(C2=C(c3cn(C)c4ccc(OCc5ccccc5)cc34)C(=O)NC2=O)c2ccccc21", "TGI": "> 25 µM"}
{"Compound": "CCCc1n(Cc2ccc3ccccc3c2)c2ccccc2[n+]1Cc1ccc2ccccc2c1", "TGI": "1.68 µM"}
{"Compound": "O=C(CCc1ccc(O)cc1)NCCc1cccc(O)c1", "TGI": "> 50 µM"}
{"Compound": "N#CC(C#N)=C(C(C#N)C#N)C(C#N)C#N", "TGI": "> 100 µM"}
{"Compound": "N#CC1=C(Cl)NC(Cl)=C(C#N)C1c1ccc(Cl)cc1", "TGI": "32.5 µM"}
{"Compound": "CC(=O)O[C@H]1C(=O)[C@@]2(C)[C@H]([C@H](OC(=O)c3ccccc3)[C@]3(O)C[C@H](OC(=O)[C@H](OC(=O)OC[C@@H]4COC(C)(C)O4)[C@@H](NC(=O)c4ccccc4)c4ccccc4)C(C)=C1C3(C)C)[C@]1(OC(C)=O)CO[C@@H]1C[C@@H]2O", "TGI": "> 33.3 µM"}
{"Compound": "C[C@]12CC[C@H](O)CC1=CC[C@@H]1C2CC[C@]2(C)NC(=O)C(C#N)CC12 (stereo not given in full)", "TGI": "> 100 µM"}
{"Compound": "O=c1nc2n(c3nsnc13)CCO2", "TGI": "> 100 µM"}

Prompt: Look up and report measured TGI (TK-10 renal) for the following compound: CC(=O)N1CCN([C@H]2CCC[C@@H](NC(=O)c3cc4c(F)ccc(C)c4[nH]3)C2)CC1
Completion: > 100 µM

Prompt: Enter measured TGI, system TK-10 renal, for the compound shown: O=C(CSc1nnc(Cc2ccccc2)o1)Nc1ccc(Cl)cc1Cl
Completion: > 100 µM

Prompt: Under TK-10 renal, report TGI for CC(C)OC(=O)Nc1ccc(-c2nc(-c3cccc(OCCN4CCOCC4)c3)c(-c3ccnc(Br)c3)[nH]2)cc1
Completion: > 100 µM

Prompt: // output TGI; input COc1cc2c3c(c1O)N=NC=3CCN=2 ; system TK-10 renal
Completion: 52.3 µM

Prompt: Identify measured TGI obtained with TK-10 renal for C[Si](C)(C)/N=C1\N2C(=NC1(C(F)(F)F)C(F)(F)F)Sc1ccccc12 .
Completion: > 50 µM

Prompt: Recall the reported TGI of COc1ccc(/C(COc2ccc3c(c2)oc(=O)c2cc(OC)ccc23)=N/O)cc1 on TK-10 renal and write it down.
Completion: > 100 µM

Prompt: Provide TGI, system TK-10 renal, entry O=C1Nc2ccc(Br)cc2C1=Nc1ccc2c(c1)OCO2
Completion: 59.6 µM

Prompt: GET TGI where system = TK-10 renal and item = COc1ccccc1N1CCN(CC(O)COc2c(Br)c(Br)c(Br)c3c2OC(C)(C)C3)CC1 (stereo not given)
Completion: 46.7 µM

Prompt: Give reported TGI for NS(=O)(=O)c1ccc(N=Nc2ncccc2O)cc1 (TK-10 renal)
Completion: > 100 µM

Prompt: Output reported TGI of the compound COc1cc(Nc2nc3c(N)cc(C(F)(F)F)cc3nc2-c2ccccc2)cc(OC)c1OC on TK-10 renal.
Completion: > 95.4 µM

Prompt: Write down the reported TGI (system: TK-10 renal) of COc1cc(C(C)c2cc3c(cc2OCCN)OCO3)cc(OC)c1OC (stereo not given)
Completion: > 100 µM

Prompt: # assay system TK-10 renal: give TGI of COc1cccc2c1C(=O)C1(O)CCCCC21 (stereo not given)
Completion: > 100 µM

Prompt: Find TGI for CC(C)(NO)/C(=N\O)c1ccco1 on TK-10 renal and write it down.
Completion: > 100 µM

Prompt: Look up and report measured TGI (TK-10 renal) for the following compound: COc1ccc(C(O)c2cc3c(N)c(C(=O)Nc4ccc(Br)cc4)sc3nc2C)cc1 (stereo not given)
Completion: 34.3 µM

Prompt: Name the recorded TGI of Clc1ccc(-c2ccc(CNCC3CCNCC3)o2)c(-c2ccccc2)c1 , assay system TK-10 renal.
Completion: 3.13 µM

Prompt: Enter TGI (test system TK-10 renal) for ClCc1nn(-c2ccccc2)c(CCl)c1CCl
Completion: 21.3 µM

Prompt: Give TGI for this entry on TK-10 renal: Cn1cnc2[nH]c(=O)[nH]c(=S)c21
Completion: > 100 µM

Prompt: Look up and report measured TGI (TK-10 renal) for the following compound: CC(=O)Oc1cc2oc(=O)cc(C)c2cc1OC(C)=O
Completion: > 100 µM

Prompt: State the measured TGI (TK-10 renal) of O=C1OC(c2cccc(C(F)(F)F)c2)(c2cccc(C(F)(F)F)c2)c2ccc3ccccc3c21
Completion: > 100 µM
